meta.source: ChEMBL document CHEMBL6071180

- experiment_description: Apparent clearance during terminal phase in Sprague-Dawley rat at 10 mg/kg, IG measured for 24 hrs by LC-MS/MS analysis
- Assay type: ADME, organism-based
- assay_conditions: in vivo, po, read-out: CLz/F (converted)
measurement_name: CL/F (mL/min/kg)
Numeric only. Scale: mL/min/kg

### Prompt Give reported CL/F value for "O=c1[nH]cc(-c2cc(NCCc3ccccc3)c(-c3ccoc3)nn2)c(=O)[nH]1"
### Response 58.8

###

- experiment_description: AUC (0 to 24 hrs) in Sprague-Dawley rat at 10 mg/kg, IG measured for 24 hrs by LC-MS/MS analysis
- Format: ADME, organism-based
- assay_conditions: in vivo, po
measurement_name: AUC(0-t) at 24 h (ng·h/mL)
I only need the number, in ng·h/mL, no unit after it.

### Prompt Tell us which AUC(0-t) at 24 h value is on record for "O=c1[nH]cc(-c2cc(NCCc3ccccc3)c(-c3ccoc3)nn2)c(=O)[nH]1"
### Response 2860

###

- experiment_description: Metabolic stability in rat liver microsomes assessed as half life at 5 uM preincubated for 5 mins followed by NADPH addition measured upto 120 mins
- Assay type: ADME, Microsome
- assay_conditions: time < 125 min
measurement_name: half-life at 5 µM

### Prompt Provide only the value of recorded half-life at 5 µM for "O=c1[nH]cc(-c2cc(NCCc3ccccc3)c(-c3ccoc3)nn2)c(=O)[nH]1"
### Response > 2 h

###

- experiment_description: Half life in Sprague-Dawley rat at 10 mg/kg, IG measured for 24 hrs by LC-MS/MS analysis
- Type: ADME, organism-based
- assay_conditions: in vivo, po
measurement_name: half-life (h)
Dear colleague, please return just the value in h, with no unit written.

### Prompt Please give measured half-life of the following entry: "O=c1[nH]cc(-c2cc(NCCc3ccccc3)c(-c3ccoc3)nn2)c(=O)[nH]1"
### Response 3.37

###

- experiment_description: Half life in Sprague-Dawley rat at 5 mg/kg, iv measured for 24 hrs by LC-MS/MS analysis
- Format: ADME, organism-based
- assay_conditions: in vivo
measurement_name: half-life (min)
I only need the number, in min, no unit after it.

### Prompt For the molecule "O=c1[nH]cc(-c2cc(NCCc3ccccc3)c(-c3ccoc3)nn2)c(=O)[nH]1" , report half-life.
### Response 286

###

- target_desc: 5'-nucleotidase (Homo sapiens, UniProt P21589)
- Sequence (P21589 whole entry): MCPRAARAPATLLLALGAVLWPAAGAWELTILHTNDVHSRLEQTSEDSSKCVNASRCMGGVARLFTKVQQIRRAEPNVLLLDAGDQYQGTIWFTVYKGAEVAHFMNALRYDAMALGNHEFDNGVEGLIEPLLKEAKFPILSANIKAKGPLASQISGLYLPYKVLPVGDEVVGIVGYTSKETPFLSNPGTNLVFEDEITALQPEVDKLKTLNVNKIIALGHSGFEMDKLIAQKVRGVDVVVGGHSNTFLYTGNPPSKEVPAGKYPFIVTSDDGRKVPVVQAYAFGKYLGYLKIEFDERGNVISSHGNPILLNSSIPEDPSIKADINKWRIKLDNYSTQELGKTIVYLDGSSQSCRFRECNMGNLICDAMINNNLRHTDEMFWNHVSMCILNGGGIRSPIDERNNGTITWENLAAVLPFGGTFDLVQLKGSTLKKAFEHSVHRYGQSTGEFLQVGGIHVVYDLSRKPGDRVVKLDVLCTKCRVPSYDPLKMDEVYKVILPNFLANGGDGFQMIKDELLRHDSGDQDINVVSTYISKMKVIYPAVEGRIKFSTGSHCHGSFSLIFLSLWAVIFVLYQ
- assay_conditions: dose 500.0 nM, time 100.0 min
measurement_name: inhibition
The reply should read as a number followed by its unit.

### Prompt Supply inhibition measured with 5'-nucleotidase (Homo sapiens, UniProt P21589) for "O=C(c1nnc(-c2c[nH]c(=O)[nH]c2=O)cc1NCCc1ccccc1)N1CCCC1" .
### Response 97.6%

### Prompt Report inhibition from 5'-nucleotidase (Homo sapiens, UniProt P21589) testing of "COc1ccc(CCNc2cc(-c3c[nH]c(=O)[nH]c3=O)nnc2OC)cc1"
### Response 98.8%

### Prompt GET inhibition | system: 5'-nucleotidase (Homo sapiens, UniProt P21589) | item: "O=c1[nH]cc(-c2cc(NCCc3ccccc3)c(-c3ccoc3)nn2)c(=O)[nH]1"
### Response 101%

### Prompt Recall the reported inhibition of "COc1nnc(-c2c[nH]c(=O)[nH]c2=O)cc1NCCc1ccccc1F" when tested on 5'-nucleotidase (Homo sapiens, UniProt P21589).
### Response 99.3%

### Prompt # return inhibition for "O=c1[nH]cc(-c2cc(NCCc3ccccc3)c(-c3ccsc3)nn2)c(=O)[nH]1" , test system: 5'-nucleotidase (Homo sapiens, UniProt P21589)
### Response 96.8%

### Prompt Quote 5'-nucleotidase (Homo sapiens, UniProt P21589) inhibition for entry "COc1nnc(-c2c[nH]c(=O)[nH]c2=O)cc1NCCc1c[nH]c2ccccc12" .
### Response 100%

### Prompt Identify measured inhibition obtained with 5'-nucleotidase (Homo sapiens, UniProt P21589) for "O=C(c1nnc(-c2c[nH]c(=O)[nH]c2=O)cc1NCCc1ccccc1)N1CCC1" .
### Response 87.4%

### Prompt Please look at "CCNC(=O)c1nnc(-c2c[nH]c(=O)[nH]c2=O)cc1NCCc1ccccc1" and tell me its recorded inhibition on 5'-nucleotidase (Homo sapiens, UniProt P21589).
### Response 98.1%

### Prompt // fetch inhibition for "O=c1[nH]cc(-c2cc(NCCc3ccccc3)c(-c3ccco3)nn2)c(=O)[nH]1" ; system: 5'-nucleotidase (Homo sapiens, UniProt P21589)
### Response 92.6%

### Prompt Enter measured inhibition, system 5'-nucleotidase (Homo sapiens, UniProt P21589), for the compound shown: "O=c1[nH]cc(-c2cc(NCCc3ccccc3)c(-c3cccs3)nn2)c(=O)[nH]1"
### Response 99.9%

### Prompt # return inhibition for "O=c1[nH]cc(-c2cc(NCCc3ccccc3)c(-c3ccccc3)nn2)c(=O)[nH]1" , test system: 5'-nucleotidase (Homo sapiens, UniProt P21589)
### Response 39.9%

### Prompt Look up 5'-nucleotidase (Homo sapiens, UniProt P21589) data: inhibition of "Cn1cc(-c2nnc(-c3c[nH]c(=O)[nH]c3=O)cc2NCCc2ccccc2)cn1" , then report it.
### Response 97.2%

### Prompt Determine reported inhibition for "COc1nnc(-c2c[nH]c(=O)[nH]c2=O)cc1NCCc1ccc(F)cc1" ; test system: 5'-nucleotidase (Homo sapiens, UniProt P21589).
### Response 98.2%

### Prompt Fill in: inhibition on 5'-nucleotidase (Homo sapiens, UniProt P21589), entry "O=c1[nH]cc(-c2cc(NCCc3ccccc3)c(N3CCCC3)nn2)c(=O)[nH]1"
### Response 24.5%

### Prompt Name the value of inhibition reported for "O=c1[nH]cc(-c2cc(NCCc3ccccc3)c(OCC(F)F)nn2)c(=O)[nH]1" when tested on 5'-nucleotidase (Homo sapiens, UniProt P21589).
### Response 73.9%

### Prompt Under 5'-nucleotidase (Homo sapiens, UniProt P21589): report inhibition of "NC(=O)c1nnc(-c2c[nH]c(=O)[nH]c2=O)cc1NCCc1c[nH]c2ccccc12" .
### Response 96.2%

### Prompt Report inhibition from 5'-nucleotidase (Homo sapiens, UniProt P21589) testing of "COc1nnc(-c2c[nH]c(=O)[nH]c2=O)cc1NCCc1ccccn1"
### Response 39.6%

### Prompt Please tell me the measured inhibition for "COc1nnc(-c2c[nH]c(=O)[nH]c2=O)cc1NCCc1cccs1" ; system: 5'-nucleotidase (Homo sapiens, UniProt P21589).
### Response 96.9%
